# study.conditions: a range is the spread between reports
melting point overview

# count of solved cases: 4
N#CCCc1ccccc1: -2 to -1 °C
CCOC(=O)c1ccccn1: 1 to 2 °C
O=C(O)CCCCCCCC(=O)O: 102 to 106 °C
O=C(O)c1cc(Cl)ccc1Cl: 152 to 156 °C

Need melting point of O=C(O)c1cccc(Oc2ccccc2)c1 , thanks. 148 to 150 °C

What do we get for COc1ccc(OC)c([N+](=O)[O-])c1 ? 71 to 72.5 °C

What do we get for O=[N+]([O-])c1cccc(CCl)c1 ? 45 to 47 °C

What do we get for CCC(C)=O ? -87 to -86 °C

What do we get for COC(=O)c1ccc(Br)cc1 ? 79 to 81 °C

What do we get for c1ccc(C2CCCCC2)cc1 ? 5 to 7.3 °C

What do we get for BrCCCCCCBr ? -2.3 to 2 °C

* * *

melting point overview
# study.conditions: a range is the spread between reports

OCCc1c[nH]c2ccccc12: 58 to 59 °C
O=c1c(-c2ccc(O)cc2)coc2cc(O)cc(O)c12: 300 to 302 °C

Proceed to the following item.
Need melting point of CN(C)c1ccccc1 , thanks. 2 to 3 °C

* * *

# study.conditions: a range is the spread between reports
endpoint.label: melting point

Cc1cnc2ccccc2c1: 15 to 16.5 °C
CC#CC#CC: 67 to 67.8 °C
CC1=C(C)CCCC1: -84.1 to -84 °C
NC(=S)NS(=O)(=O)c1ccc(N)cc1: 179 to 182 °C
O/N=C\c1ccccc1: 35 to 36.5 °C
OCc1cccc2ccccc12: 61 to 64 °C

Proceed to the following item.
Need melting point of Cc1cc([N+](=O)[O-])ccc1N , thanks. 132 to 134 °C

* * *

# study.conditions: a range is the spread between reports
endpoint.label: melting point

COc1cccc(OC)c1C: 39 to 40 °C

Need melting point of O=C(O)C=Cc1ccc(Cl)cc1 , thanks. 248 to 249 °C

What do we get for Oc1c(I)cc(I)cc1I ? 158 to 160 °C

What do we get for CC(C)=NO ? 61 to 62 °C

What do we get for c1ccc2c(c1)ccc1ccccc12 ? 99 to 101 °C

What do we get for N#CCc1ccccc1C(F)(F)F ? 30 to 33 °C

What do we get for Cc1cc(O)c(C(C)C)cc1C1(c2cc(C(C)C)c(O)cc2C)OC(=O)c2ccccc21 ? 250 to 253 °C

* * *

# study.conditions: a range is the spread between reports
endpoint.label: melting point

Need melting point of Oc1cccc(Cl)c1 , thanks. 32 to 34 °C

* * *

# study.conditions: a range is the spread between reports
melting point overview

# count of solved cases: 3
CN(C)c1ccncc1: 111 to 112 °C
NNc1c(F)c(F)c(F)c(F)c1F: 75 to 76 °C
Nc1ccc(Br)cc1[N+](=O)[O-]: 112 °C

Proceed to the following item.
Need melting point of O=C(O)c1c(F)c(F)c(F)c(F)c1F , thanks. 101 to 102 °C

* * *

# study.conditions: a range is the spread between reports
endpoint.label: melting point

# count of solved cases: 5
COc1ccc(Cl)cc1N: 82 to 83 °C
CCCCCCCCCCCCCCCCCCCCCCCCCCCCC: 63.7 to 66 °C
Cc1c(N)cccc1Cl: 1 to 2 °C
Cc1cc(C)nc(C)c1: -46 to -43 °C
O=[N+]([O-])C(Br)(CO)CO: 127 to 132 °C

Proceed to the following item.
Need melting point of Cc1ccc(N)c(N)c1 , thanks. 88 to 89.5 °C

* * *

# study.conditions: a range is the spread between reports
melting point overview

Oc1ccccc1O: 105 to 106 °C
O=[N+]([O-])c1ccc(O)c(Cl)c1: 106 to 110 °C
C1=CCC=CC1: -49.2 to -49 °C
CC(C)(C)O: 25 to 26 °C
CCCCCSCCCCC: -51.3 to -51 °C

Need melting point of O=Cc1cc([N+](=O)[O-])ccc1O , thanks. 125 to 129 °C

What do we get for C=C(C)CC(C)(C)C ? -94 to -93 °C

What do we get for c1ccc2cc(-c3ccc4ccccc4c3)ccc2c1 ? 187 to 188 °C

What do we get for C=Cc1cccc([N+](=O)[O-])c1 ? -10 to -5 °C

What do we get for O=C(O)CCCCBr ? 39 to 40 °C

What do we get for OCC(F)(F)F ? -44 to -43.5 °C

What do we get for N#CCc1cccc(CC#N)c1 ? 33 to 34 °C

* * *

# study.conditions: a range is the spread between reports
endpoint.label: melting point

# count of solved cases: 4
CC(=O)Nc1cccc(C)c1: 65 to 65.5 °C
Cc1nc2ccccc2[nH]1: 176 °C
C=CCCC(=O)O: -22.5 to -22 °C
c1ccc2ncccc2c1: -15 to -14.8 °C

Need melting point of Cc1cc(C2(c3cc(C)c(O)c(Br)c3)OS(=O)(=O)c3ccccc32)cc(Br)c1O , thanks. 241 to 242 °C

What do we get for CC(CO)(CO)[N+](=O)[O-] ? 150 °C

What do we get for Sc1ccc(Br)cc1 ? 73 to 75 °C

What do we get for O=C1CCCCC1c1ccccc1 (stereo not given) ? 57 to 58 °C

What do we get for O=[N+]([O-])c1ccc(C=NO)cc1 ? 128 to 130 °C

What do we get for Clc1nc(Cl)c(Cl)c(Cl)c1Cl ? 125 to 126 °C

What do we get for c1cc2c3c(c1)ccc1cccc(c13)C2 ? 114 to 116 °C

What do we get for O=S(=O)(Cl)c1ccc2ccccc2c1 ? 76 to 81 °C

What do we get for c1ccc(Oc2ccccc2)cc1 ? 26.8 to 28 °C

What do we get for CCOc1cc(C=O)ccc1O ? 77 to 77.5 °C

What do we get for c1ccc(COc2ccccc2)cc1 ? 39 to 40 °C

* * *

melting point overview
# study.conditions: a range is the spread between reports

# count of solved cases: 3
NC1CCCC1: -85.7 to -82.7 °C
OC1CCCC1: -20 to -16.2 °C
Oc1cccc(F)c1: 10 to 13.7 °C

Need melting point of CC(C)(C)CO , thanks. 50 to 54 °C

What do we get for CN1C2CCC1CC(=O)C2 ? 42 to 43 °C

What do we get for CCC1(C)CCCC1 ? -144 °C

What do we get for O=C(O)C(F)(F)C(F)(F)C(=O)O ? 115 to 119 °C

What do we get for O=C1NC(=O)c2c1cccc2[N+](=O)[O-] ? 214 to 219 °C

* * *

# study.conditions: a range is the spread between reports
melting point overview

# count of solved cases: 5
CCCCCCCCCCC(C)=O: 19 to 21 °C
O=C(O)c1ccccc1C(F)(F)F: 109 to 111 °C
c1ccc(-c2ccc(-c3ccccc3)cc2)cc1: 210 to 214 °C
Oc1ccc(O)c(-c2ccccc2)c1: 101 to 102 °C
Cc1cc(C=O)c(C)n1-c1ccccc1: 88.5 to 89 °C

Need melting point of CN(C)c1cccc(O)c1 , thanks. 82 to 86 °C

What do we get for CCCCCO ? -79 to -78 °C

What do we get for NC(=O)c1cccc(N)c1 ? 113 to 116 °C

What do we get for C=C(C)c1ccccc1 ? -23.2 to -23 °C

What do we get for Ic1ccccc1 ? -31.3 to -31 °C

What do we get for O=Cc1ccc(Oc2ccccc2)cc1 ? 24.5 to 25 °C

* * *

melting point overview
# study.conditions: a range is the spread between reports

Nc1ncc2ncn(COCCO)c2n1: 188 to 189 °C
C=C(C)CC: -138 to -137 °C
CCOC(=O)c1cccnc1: 8.5 to 9 °C
CCCCCCCCC#CCCCCCCCC(=O)O: 45 to 48 °C

Need melting point of O=C(O)CSc1ccccc1 , thanks. 64 to 65 °C

What do we get for OCCCCCCCCCO ? 45.8 to 47 °C

* * *

melting point overview
# study.conditions: a range is the spread between reports

C#CCCCC: -132 °C

Need melting point of OCCOCCOCCO , thanks. -7 to -4 °C

What do we get for CCOC(=O)c1ccco1 ? 34 to 34.5 °C

What do we get for O=[N+]([O-])c1ccccc1O ? 44 to 46 °C

What do we get for Clc1ccc(C(c2ccc(Cl)cc2)C(Cl)(Cl)Cl)cc1 ? 108 to 110 °C

What do we get for CCOc1ccccc1O ? 26 to 29 °C

What do we get for ClC1=C(Cl)[C@]2(Cl)[C@@H]3[C@@H]4C[C@@H]([C@H]5O[C@@H]45)[C@@H]3[C@@]1(Cl)C2(Cl)Cl ? 175 to 176 °C

Attribution: a melting point compilation (Tetko et al.)
